Reference for the values: patent EP0888322B1

- System: HCMV (strain AD169)
- assay_comment: Antiviral assay, ELISA for HCMV antigens
- Assay type: cell-based
- settings: Human betaherpesvirus 5, AD169, 96 hours
property: EC50 (µM)

molecular_string: O=C(CCc1ccccc1)Nc1cc([N+](=O)[O-])ccc1C(=O)C(F)(F)F
bound_operator: =
value_reported: 16
--
molecular_string: O=C(Nc1ccccc1C(=O)C(F)(F)F)C(F)(F)F
bound_operator: >
value_reported: 100

###

- assay_comment: in vitro
- Format: cell-based
- settings: human, human foreskin fibroblasts

compound: O=C(Nc1ccc(I)cc1C(=O)C(F)(F)F)c1ccco1 [Example 13]
CC50: > 100 µM

###

- target_under_test: Bovine pancreas α-chymotrypsin (Bos taurus, UniProt P00766, DEL14-15/DEL147-148)
- Construct: Bovine pancreas α-chymotrypsin (type II, Sigma); purchased Sigma type II; host or cells: bovine pancreas
- assay_comment: Chymotrypsin assay
- Format: biochemical
- settings: @ 100 µM; read-out: Chymotrypsin % @ Conc.

molecular_string: O=C(Nc1ccccc1C(=O)C(F)(F)F)OCc1ccccc1
inhibition at 100 µM [%]: 21
--
molecular_string: O=C(Nc1ccccc1C(=O)C(F)(F)F)C(F)(F)F
inhibition at 100 µM [%]: 49
--
molecular_string: O=C(CCc1ccccc1)Nc1ccccc1C(=O)C(F)(F)F
inhibition at 100 µM [%]: 11
--
molecular_string: O=C(CCc1ccccc1)Nc1cc(F)ccc1C(=O)C(F)(F)F
inhibition at 100 µM [%]: 48
--
molecular_string: O=C(Nc1ccccc1C(=O)C(F)(F)F)c1cc2ccccc2s1
inhibition at 100 µM [%]: 48
--
molecular_string: O=C(CCc1ccccc1)Nc1cc([N+](=O)[O-])ccc1C(=O)C(F)(F)F
inhibition at 100 µM [%]: 27

###

- target_under_test: UniProt P16753
- Sequence (P16753 1-256): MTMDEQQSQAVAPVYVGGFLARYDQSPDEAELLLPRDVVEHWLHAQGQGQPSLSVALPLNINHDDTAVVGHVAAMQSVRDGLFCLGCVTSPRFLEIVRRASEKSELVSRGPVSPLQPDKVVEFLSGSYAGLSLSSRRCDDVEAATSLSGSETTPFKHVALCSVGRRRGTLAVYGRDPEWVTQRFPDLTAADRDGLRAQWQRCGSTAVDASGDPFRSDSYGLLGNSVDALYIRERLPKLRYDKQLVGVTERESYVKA
- assay_comment: Enzymatic assay for HCMV protease (Assemblin) inhibitors, chromogenic pNA substrate
- Format: biochemical
- settings: @ 33 µM; read-out: Assemblin Protease % @ Conc.
Recorded inhibition at 33 µM by entry

compound: O=C(CCc1ccccc1)Nc1cc([N+](=O)[O-])ccc1C(=O)C(F)(F)F [Example 7]
inhibition at 33 µM, %: 84
--
compound: O=C(Nc1ccccc1C(=O)C(F)(F)F)c1ccccn1 [Example 11]
inhibition at 33 µM, %: 40
--
compound: O=C(Nc1ccc(F)cc1C(=O)C(F)(F)F)c1ccco1 [Example 8]
inhibition at 33 µM, %: 18
--
compound: COc1ccccc1C(=O)Nc1ccccc1C(=O)C(F)(F)F [Example 12]
inhibition at 33 µM, %: 14
